Recorded values, source paper PMC7764916.

# maps each entry to its IC50
# measured.on: BChE (Mus musculus)
# Construct: the brain lysate and iso-OMPA were replaced with diluted serum solution and 0.1 μM BW284c51
# Sequence (Q03311 30-603): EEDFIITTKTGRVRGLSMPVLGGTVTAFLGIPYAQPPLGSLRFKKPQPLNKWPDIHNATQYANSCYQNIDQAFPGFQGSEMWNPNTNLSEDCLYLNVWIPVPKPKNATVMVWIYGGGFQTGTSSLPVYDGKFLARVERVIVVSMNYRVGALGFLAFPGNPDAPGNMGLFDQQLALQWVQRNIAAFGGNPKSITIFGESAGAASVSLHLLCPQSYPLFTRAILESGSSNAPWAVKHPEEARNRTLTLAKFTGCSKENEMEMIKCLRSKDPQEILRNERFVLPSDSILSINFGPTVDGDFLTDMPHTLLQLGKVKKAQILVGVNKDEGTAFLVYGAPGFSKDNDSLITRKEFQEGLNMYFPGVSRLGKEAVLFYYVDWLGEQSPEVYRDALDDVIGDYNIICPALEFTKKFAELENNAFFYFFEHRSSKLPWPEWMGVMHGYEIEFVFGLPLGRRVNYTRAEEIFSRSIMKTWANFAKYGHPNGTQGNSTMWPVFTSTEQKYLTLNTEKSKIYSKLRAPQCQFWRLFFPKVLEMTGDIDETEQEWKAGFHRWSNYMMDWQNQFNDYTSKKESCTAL
# method.notes: BChE activity assay (Ellman method), mouse serum
# assay.setup: alkaloids; Figure 3B
Just the number in µM, nothing appended.

[
  {
    "compound": "COc1cc2c(cc1O)[C@@H]1Cc3ccc(OC)c(O)c3C[N@+]1(C)CC2",
    "IC50 (µM)": 247
  }
]

Now consider the entry below.
Given the entry COc1ccc2c3c1O[C@H]1C[C@@H](O)C=C[C@@]31CCN(C)C2 [Galanthamine, galanthamine, reference compound] , what IC50 was observed with BChE (Mus musculus)?
49.8

----------
# measured.on: AChE (Mus musculus, UniProt P21836)
# Construct: The AChE assay medium consisted of brain lysate (5 mg/mL) with testing drugs; from tissue; host or cells: mouse brain (Triton X-100 low-salt lysate)
# Sequence (P21836 32-614): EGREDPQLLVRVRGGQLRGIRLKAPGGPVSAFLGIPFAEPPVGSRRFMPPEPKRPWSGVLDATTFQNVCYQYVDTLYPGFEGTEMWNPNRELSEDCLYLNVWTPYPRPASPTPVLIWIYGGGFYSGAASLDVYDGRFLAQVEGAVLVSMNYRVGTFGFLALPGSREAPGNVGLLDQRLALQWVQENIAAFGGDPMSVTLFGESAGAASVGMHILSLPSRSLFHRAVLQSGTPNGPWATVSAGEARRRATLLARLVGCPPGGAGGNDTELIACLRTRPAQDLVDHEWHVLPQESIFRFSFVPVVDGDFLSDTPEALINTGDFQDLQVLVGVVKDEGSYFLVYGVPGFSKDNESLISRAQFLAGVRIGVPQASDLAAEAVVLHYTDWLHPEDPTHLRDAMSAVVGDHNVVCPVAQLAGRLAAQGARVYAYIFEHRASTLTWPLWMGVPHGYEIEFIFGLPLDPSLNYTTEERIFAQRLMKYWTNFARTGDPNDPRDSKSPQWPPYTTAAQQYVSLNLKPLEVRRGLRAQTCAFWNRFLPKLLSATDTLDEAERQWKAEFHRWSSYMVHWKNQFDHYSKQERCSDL
# method.notes: biochemical
# assay.setup: Figure 5A; ATCh 0.625 mM; read-out: AChE IC50 (single drug, synergy experiment)
attribute.measured: IC50 (µM)
Field: numeric (µM). Do not append units.

// query IC50 value for entry COc1ccc2cc1Oc1ccc(cc1)C[C@H]1c3cc(c(OC)cc3CCN1C)Oc1c(O)c(OC)cc3c1[C@H](C2)N(C)CC3
2.12
